target: Beta-lactamase (Pseudomonas aeruginosa); assay: Uncompetitive inhibition of Pseudomonas aeruginosa metallo-beta-lactamase IMP-1 expressed in Escherichia coli BL21(DE3) using CENTA as substrate by spectrophotometric analysis
quantityKind: Kiuc (µM)

Known results for compounds:
| structure | Kiuc, µM |
| --- | --- |
| COc1ccc(-n2c3c(c(-c4ccccc4)c2-c2ccccc2)C(=C(C#N)C#N)NC=N3)cc1 | 225 |
| Cc1ccc(-n2c(-c3ccccc3)c(-c3ccccc3)c3c(Cl)ncnc32)cc1 | 112 |

A: Cc1ccc(-n2cc(-c3ccccc3)c3c(Cl)ncnc32)cc1
B: COc1ccc(-n2c(-c3ccccc3)c(-c3ccccc3)c3c(Cl)ncnc32)cc1
# return whichever of A and B has the smaller Kiuc # answer = label of selected item
A
(A: 106 µM, B: 182 µM)

* * *

system: Klebsiella pneumoniae; assay: Inhibition of Klebsiella pneumoniae metallo-beta-lactamase IMP-1 expressed in Escherichia coli BL21(DE3) using CENTA as substrate at 10 uM by spectrophotometric analysis
quantityKind: inhibition (%)

| structure | readoutUnits | endpointValue |
| --- | --- | --- |
| Cc1ccc(-n2c(-c3ccccc3)c(-c3ccccc3)c3c(N/N=C/c4ccccc4)ncnc32)cc1 | % | 13 |
| Cc1ccc(-n2cc(-c3ccccc3)c3c(Cl)ncnc32)cc1 | % | 9 |
| Cc1ccc(-n2c(-c3ccccc3)c(-c3ccccc3)c3c2ncn2c(C)nnc32)cc1 | % | 7 |
| Cc1ccc(-n2c(-c3ccccc3)c(-c3ccccc3)c3c(Cl)ncnc32)cc1 | % | 10 |

1: Cc1ccc(-n2c(-c3ccccc3)c(-c3ccccc3)c3c2ncn2c(=S)[nH]nc32)cc1
2: Cc1ccc(-n2c(-c3ccccc3)c(-c3ccccc3)c3c2ncn2cnnc32)cc1
Among 1 and 2 , whose measured inhibition is the smaller figure? Respond using the label that marks the chosen record.
2
(2: 4%, 1: 14%)

* * *

biological target: Beta-lactamase (Pseudomonas aeruginosa) (UniProt Q79MP6); assay: Inhibition of Pseudomonas aeruginosa metallo-beta-lactamase IMP-1 expressed in Escherichia coli BL21(DE3) using CENTA as substrate at 10 uM by spectrophotometric analysis
Sequence (Q79MP6 19-246 limits assumed): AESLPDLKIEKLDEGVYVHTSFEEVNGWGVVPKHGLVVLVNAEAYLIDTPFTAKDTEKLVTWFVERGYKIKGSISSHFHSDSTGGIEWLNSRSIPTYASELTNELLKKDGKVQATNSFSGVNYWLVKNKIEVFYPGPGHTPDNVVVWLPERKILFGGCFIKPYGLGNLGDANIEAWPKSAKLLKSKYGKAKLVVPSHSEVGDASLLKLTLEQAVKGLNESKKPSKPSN
quantityKind: inhibition (%)

| structure | inhibition [%] |
| --- | --- |
| Cc1ccc(-n2c(-c3ccccc3)c(-c3ccccc3)c3c2ncn2c(=S)[nH]nc32)cc1 | 14 |
| COc1ccc(-n2c3c(c(-c4ccccc4)c2-c2ccccc2)C(=C(C#N)C#N)NC=N3)cc1 | 17 |
| Cc1ccc(-n2c(-c3ccccc3)c(-c3ccccc3)c3c(N/N=C/c4ccccc4)ncnc32)cc1 | 13 |

A: COc1ccc(-n2c(-c3ccccc3)c(-c3ccccc3)c3c(Cl)ncnc32)cc1
B: Cc1ccc(-n2cc(-c3ccccc3)c3c(Cl)ncnc32)cc1
C: Cc1ccc(-n2cc(-c3ccccc3)c(C#N)c2N)cc1
Exam item: list the entries in increasing order of inhibition. Respond with the label ranking, as requested.
C, B, A
(C: 0%, B: 9%, A: 15%)

All figures here come from ChEMBL document CHEMBL1909495.
